Target: T1, extracellular domain (ECD) of recombinant human Sortilin with a C-terminal HIS tag (ECD-huSortilin-HIS) (human, UniProt Q99523 78-755)
T1 construct: Bought (R&D Systems); also called human sortilin-ECD; not shown: C-terminal HIS tag
T1 sequence: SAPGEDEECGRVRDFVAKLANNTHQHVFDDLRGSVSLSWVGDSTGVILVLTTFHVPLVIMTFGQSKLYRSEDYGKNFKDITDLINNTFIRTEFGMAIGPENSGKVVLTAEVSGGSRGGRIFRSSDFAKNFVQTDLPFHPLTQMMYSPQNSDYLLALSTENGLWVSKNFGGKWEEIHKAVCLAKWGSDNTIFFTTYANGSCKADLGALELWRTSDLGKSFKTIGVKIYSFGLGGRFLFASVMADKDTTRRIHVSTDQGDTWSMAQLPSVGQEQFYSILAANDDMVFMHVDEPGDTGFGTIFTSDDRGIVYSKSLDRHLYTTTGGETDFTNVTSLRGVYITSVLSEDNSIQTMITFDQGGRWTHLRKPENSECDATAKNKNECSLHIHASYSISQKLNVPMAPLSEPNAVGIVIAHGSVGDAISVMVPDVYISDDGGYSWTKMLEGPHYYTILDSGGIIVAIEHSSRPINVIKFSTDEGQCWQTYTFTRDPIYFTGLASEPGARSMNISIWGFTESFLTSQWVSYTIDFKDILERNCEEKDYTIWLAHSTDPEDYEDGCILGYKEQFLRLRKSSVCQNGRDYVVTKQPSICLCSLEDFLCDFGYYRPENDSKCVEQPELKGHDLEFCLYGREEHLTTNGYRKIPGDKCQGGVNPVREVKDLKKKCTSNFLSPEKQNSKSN
Test: SPR (Biacore T200), mAb captured by anti-human antibody on CM5, Sortilin 0.1-300 nM as analyte, global 1:1 fit
Listing of entries alongside the reported koff.
Respond numerically; units are s⁻¹ and should not be typed.

Please review the entries below; each comes with its answer.
>>> experimental_result("humanized 5E20 hu5E20VHv3/hu5E20VLv3 (antibody, V domains shown, Human IgG; also called 5E20H3L3) VH: EVQLVESGGGLVQPGGSLRLSCAASGFTFSTYGMSWVRQAPGKRLEWVAIISSGGSYTYYSDTVKGRFTISRDNSKNSLYLQMNSLRAEDTAVYYCSRSSSHWYFDVWGQGTLVTVSS VL: DIQMTQSPSSVSASVGDRVTITCHASQGISSNIGWLQQKPGKAFKGLIYHGTNLKDGVPSRFSGSGSGADFTLTISSLQPEDFATYFCVQYAQFPYTFGQGTKVEKR")
0.0028
>>> experimental_result("humanized 5E20 hu5E20VHv3/hu5E20VLv4 (antibody, V domains shown, Human IgG; also called 5E20H3L4) VH: EVQLVESGGGLVQPGGSLRLSCAASGFTFSTYGMSWVRQAPGKRLEWVAIISSGGSYTYYSDTVKGRFTISRDNSKNSLYLQMNSLRAEDTAVYYCSRSSSHWYFDVWGQGTLVTVSS VL: DIQMTQSPSSVSASVGDRVTITCHASQGISSNIGWLQQKPGKAFKGLIYHGTNLKDGVPSRFSGSGSGADFTLTISSLQPEDFADYFCVQYAQFPYTFGQGTKVEKR")
0.00257

Please turn your attention to the following entry.
Documented koff of humanized 11M14 hu11M14VHv2b/hu11M14VLv4b (antibody, V domains shown, Human IgG; also called 11M14H2bL4b) VH: EVQLVESGGGLVQPGGSLRLSCAASGFTFNIYGMSWVRQAPGKGLEWVATISSGGIYTYYPDILKGRFTISRDNAKNSLYLQMNSGRAEDTAVYYCARHPGGAMDYWGQGTLVTVSS VL: DIQMTQSPSSLSASVGDRVTITCRVSENIYSNLAWYQQKPGKSPKLLVYAATNIADGVPSRFSGSGSGTDYTLTISSLQPEDFATYYCQHFWGTPPWTFGQGTKLEIK : 0.00117

Reference source for all entries: patent US20230235048A1
